Source: ChEMBL document CHEMBL1133492

- System: CCRF-CEM
- Assay Comment: Cytotoxicity in the absence of thymidine and presence of hypoxanthine against CCRF-CEM cell line
- Format: functional, cell-based
- Settings: Homo sapiens
Listed here are compounds together with their documented pIC50.
Note on units: pIC50 is unitless, being -log10 of a concentration expressed in mol/L.

Some compounds with recorded pIC50:
Nc1nc(N)c(CCCNc2cc(F)c(F)cc2[N+](=O)[O-])c(O)n1 :: 4.01
COC(=O)c1ccc(CN(CCc2c(N)nc(N)nc2O)c2cc(F)c([N+](=O)[O-])cc2[N+](=O)[O-])cc1 :: 5.77
Nc1nc(N)c(CCNc2cc(F)c(F)cc2[N+](=O)[O-])c(O)n1 :: 4.43

Value of measured pIC50 for the entry Nc1nc(N)c(CCCNc2ccc([N+](=O)[O-])c(F)c2F)c(O)n1 : 4.12

Measured pIC50, COC(=O)c1ccc(CN(CCCc2c(N)nc(N)nc2O)c2cc(F)c([N+](=O)[O-])cc2[N+](=O)[O-])cc1 : 5.37

Record summary for Nc1nc(N)c(CCCNc2cc(F)cc(F)c2[N+](=O)[O-])c(O)n1 : reported pIC50 = 4.01

Entry COC(=O)c1ccc(CN(CCCc2c(N)nc(N)nc2O)c2ccc([N+](=O)[O-])c(F)c2F)cc1 ; pIC50 = 4.26

Per the record, COC(=O)c1ccc(CN(CCCc2c(N)nc(N)nc2O)c2cc(F)c(F)cc2[N+](=O)[O-])cc1 has pIC50 of 4.18

---

- Assay System: Trifunctional purine biosynthetic protein adenosine-3 (Homo sapiens) (UniProt P22102)
- Sequence (P22102 whole entry): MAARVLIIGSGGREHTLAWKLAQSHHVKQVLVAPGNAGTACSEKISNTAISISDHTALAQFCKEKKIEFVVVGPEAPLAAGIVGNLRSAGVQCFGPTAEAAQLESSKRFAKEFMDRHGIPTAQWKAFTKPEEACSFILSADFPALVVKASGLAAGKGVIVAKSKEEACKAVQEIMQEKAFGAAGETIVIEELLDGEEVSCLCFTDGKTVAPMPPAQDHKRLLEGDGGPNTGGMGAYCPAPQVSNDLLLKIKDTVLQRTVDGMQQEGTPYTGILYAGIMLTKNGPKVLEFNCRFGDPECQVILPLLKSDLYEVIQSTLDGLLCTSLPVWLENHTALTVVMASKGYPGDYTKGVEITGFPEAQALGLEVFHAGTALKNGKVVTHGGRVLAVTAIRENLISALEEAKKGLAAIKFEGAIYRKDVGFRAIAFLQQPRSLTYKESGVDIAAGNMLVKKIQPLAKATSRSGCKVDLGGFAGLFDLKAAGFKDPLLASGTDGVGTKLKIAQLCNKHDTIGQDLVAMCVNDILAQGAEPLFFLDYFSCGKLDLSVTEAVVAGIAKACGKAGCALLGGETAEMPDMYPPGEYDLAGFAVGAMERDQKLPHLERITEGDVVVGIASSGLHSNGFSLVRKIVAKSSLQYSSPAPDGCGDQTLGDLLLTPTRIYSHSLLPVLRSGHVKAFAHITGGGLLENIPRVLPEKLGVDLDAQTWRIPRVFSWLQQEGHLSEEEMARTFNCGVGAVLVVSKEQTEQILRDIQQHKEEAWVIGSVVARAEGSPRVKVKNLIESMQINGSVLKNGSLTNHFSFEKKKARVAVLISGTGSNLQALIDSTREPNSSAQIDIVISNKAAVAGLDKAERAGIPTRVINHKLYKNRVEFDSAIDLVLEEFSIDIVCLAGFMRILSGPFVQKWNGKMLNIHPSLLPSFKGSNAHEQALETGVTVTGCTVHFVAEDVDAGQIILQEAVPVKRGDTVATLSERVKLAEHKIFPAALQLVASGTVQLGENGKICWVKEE
- Assay Comment: In vitro inhibitory activity against Glycinamide ribonucleotide transformylase (GAR Tfase) following 3 min pre-incubation at 250 uM concentration
Use 60% as the dividing line for inhibition, with the line itself on the true side and lower values as false.

A selection of reference data follows.
Nc1nc(N)c(CCCNc2cc(F)ccc2[N+](=O)[O-])c(O)n1 :: true
Nc1nc(N)c(CCCNc2cc(F)c(F)cc2[N+](=O)[O-])c(O)n1 :: true
COC(=O)c1ccc(CN(CCc2c(N)nc(N)nc2O)c2cc(F)c([N+](=O)[O-])cc2[N+](=O)[O-])cc1 :: false

Assess whether reported inhibition for COC(=O)c1ccc(CN(CCCc2c(N)nc(N)nc2O)c2cc(F)c(F)cc2[N+](=O)[O-])cc1 sits at 60% or higher. false

Has COC(=O)c1ccc(CN(CCc2c(N)nc(N)nc2O)c2cc(F)ccc2[N+](=O)[O-])cc1 a recorded inhibition greater than or equal to 60%? true

Does the reported inhibition for COC(=O)c1ccc(CN(CCc2c(N)nc(N)nc2O)c2cc(F)c(F)cc2[N+](=O)[O-])cc1 fall at or above the 60% mark? false

Say whether COC(=O)c1ccc(CN(CCCc2c(N)nc(N)nc2O)c2cc(F)ccc2[N+](=O)[O-])cc1 shows inhibition of 60% or more. true

Evaluate Nc1nc(N)c(CCCNc2cc(F)c([N+](=O)[O-])cc2[N+](=O)[O-])c(O)n1 : inhibition at minimum 60%? true

Is reported inhibition greater than or equal to 60% here: COC(=O)c1ccc(CN(CCc2c(N)nc(N)nc2O)c2cc(F)cc(F)c2[N+](=O)[O-])cc1 false
